B1: NF2 (merlin) isoform 7, human, full length (507 aa, lacks exons 2-3 = isoform-1 residues 39-121; exon-16 C-terminus), P35240-4 (parent)
chain: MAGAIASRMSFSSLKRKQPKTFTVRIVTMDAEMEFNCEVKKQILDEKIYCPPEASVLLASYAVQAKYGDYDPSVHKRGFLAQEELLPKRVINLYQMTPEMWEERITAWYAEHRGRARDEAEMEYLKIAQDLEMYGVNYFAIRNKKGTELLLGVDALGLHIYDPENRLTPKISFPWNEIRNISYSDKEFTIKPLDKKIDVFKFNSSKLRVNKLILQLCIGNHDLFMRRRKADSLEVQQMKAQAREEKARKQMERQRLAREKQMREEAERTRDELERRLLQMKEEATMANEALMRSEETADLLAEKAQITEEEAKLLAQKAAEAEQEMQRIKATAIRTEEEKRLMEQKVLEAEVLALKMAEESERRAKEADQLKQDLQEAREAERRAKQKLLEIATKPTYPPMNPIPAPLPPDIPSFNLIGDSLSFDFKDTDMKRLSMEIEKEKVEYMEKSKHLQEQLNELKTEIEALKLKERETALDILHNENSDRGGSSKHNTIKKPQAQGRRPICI

variants of: B1; assay: reverse yeast two-hybrid deep mutational scan (rY2H-seq): NF2 isoform 7 mutant library as bait mated with wild-type prey strains; selection on medium lacking adenine for non-interacting pairs; NextSeq paired-end sequencing; enrichment vs …; conditions: with KDM1A (lysine-specific histone demethylase 1A; the table's label AOF2 is a gene synonym of KDM1A), O60341; yeast diploids after mating (RBait_S3 x RPrey_S3), 30 °C, selection for reporter genes on NB agar; human tyrosine kinase ABL2 co-expressed as the active kinase …; HIGHER = WEAKER BINDING (the opposite of display enrichments): higher = stronger loss of interaction: reverse Y2H selects yeast in which bait and prey do NOT interact (growth without adenine), so a …; hits-only table; scale: rY2H score; numbering: uniprot, sequence starts at 1
measureName: enrichment

// solved cases for enrichment follow
K304P | 1.4
A381K | 6.12
R379E | 5.6
Q387L | 2.07

Sample `D428N` — what was its enrichment?
1.87

For the variant shown here, `P504R` , give the reported enrichment.
1.85

Requested read-out: enrichment. Entry: `A155C`
1.93
